Assay: hexokinase 1 inhibition, dose response, selectivity assay for HKDC1 inhibitor project, biochemical (AID 504763)
Settings: inactive by the depositor's call
assay.metric: IC50 (µM)
Answer with a number only, understood to be in µM.

1. O=C(O)CSc1cc(NS(=O)(=O)c2cccc([N+](=O)[O-])c2)c2ccccc2c1O    29.4

Enquiry: Name the recorded IC50 of the item CCOC(=O)C1=C(Cc2ccc(Cl)cc2)C(=O)c2ccccc2C1=O in your answer.
Return: 22.2

Enquiry: Name the recorded IC50 of the item COc1ccc(C(=O)c2coc3c2C(=O)C(=O)c2ccccc2-3)cc1 in your answer.
Return: 27.2

Enquiry: Name the recorded IC50 of the item Nc1ccc(S(=O)(=O)c2cc(O)c3ccccc3c2O)cc1 in your answer.
Return: 59.9

----------
Experiment: hexokinase 1 inhibition, dose response, selectivity assay for HKDC1 inhibitor project, biochemical (AID 504763)
assay.metric: IC50 (µM)
Answer with a number only, understood to be in µM.

1. Cc1cc(C(F)F)n2ncc(C(=O)NCCc3ccc(Cl)cc3)c2n1    9.04
2. CCc1nc2c(c(=O)c3ccccc3n2C)c(=O)n1-c1ccc(F)cc1 [SMR000221205]    8.41
3. CC(C)c1nc2oc3c(NCC4CCCO4)ncnc3c2c2c1COC(C)(C)C2 (centres undefined) [MLS000084034]    2.36

# ---- query compound ----
Enquiry: Name the recorded IC50 of the item O=C(C1=C(c2ccccc2)C(=O)c2ccccc2C1=O)c1ccccc1 [2-benzoyl-3-phenylnaphthoquinone] in your answer.
Return: 7.24

----------
Reported pIC50 values for the following molecules.
Experiment: hexokinase 1 inhibition, dose response, selectivity assay for HKDC1 inhibitor project, biochemical (AID 504763)
pIC50: −log10 of the molar value.

1. Cc1ccc(C)c(-n2c3nc(=O)[nH]c(=O)c-3cc3cc([N+](=O)[O-])ccc32)c1    < 4.10

Enquiry: Name the recorded pIC50 of the item CC(C)c1ccc(S(=O)(=O)N=C2C=C(Sc3nnc[nH]3)C(=O)c3ccccc32)cc1 in your answer.
Return: 5.23

Enquiry: Name the recorded pIC50 of the item O=C(O)c1cc(N2N=C(C(F)(F)F)/C(=C/C=C/c3ccco3)C2=O)ccc1Cl in your answer.
Return: < 4.10

Enquiry: Name the recorded pIC50 of the item CC[C@H](C)C=C(C)/C=C/C1=CC2=C(Cl)C(=O)[C@@](C)(OC(C)=O)C(=O)C2=CO1 [SMR000470870] in your answer.
Return: < 4.10

Enquiry: Name the recorded pIC50 of the item O=Cc1[nH]c2ccccc2c1N(C(=O)CCl)c1ccccc1 [MLS001029456] in your answer.
Return: < 4.10

Enquiry: Name the recorded pIC50 of the item O=c1c2ccccc2nc2n1CCC2 in your answer.
Return: < 4.10

Enquiry: Name the recorded pIC50 of the item O=C1C=CC(CN=Nc2ccc([N+](=O)[O-])cn2)C(O)=C1 (centres undefined) [SMR001527138] in your answer.
Return: < 4.10

Enquiry: Name the recorded pIC50 of the item COC(=O)[C@@H]1[C@@H](C(=O)OC)C2(c3ccccc3-c3ccccc32)N(c2ccc(Cl)cc2)N1C#N in your answer.
Return: < 4.10

Enquiry: Name the recorded pIC50 of the item CNCc1ccccc1Sc1cc(O)ccc1O in your answer.
Return: 5.34
